PROTOCOL: Toxicokinetics of patidegib and metabolite IPI-230 in plasma after twice daily dermal application for 13 weeks
Type: in vivo, Gottingen Minipig
CONDITIONS: male, Gottingen, minipig, plasma, topical or ocular, 80 mg/kg/day, Gottingen Minipig plasma, Day 90, Group 4, 80 mg/kg/day dermal twice daily, sex M
VALUE_TYPE: Cmax

Task: Entry "CC1=C2C[C@H]3[C@@H](CC[C@@H]4C[C@H](NS(C)(=O)=O)CC[C@@]43C)[C@@H]2CC[C@@]2(C1)O[C@@H]1C[C@H](C)CN[C@H]1[C@H]2C" : reported Cmax = ?
Output: 21.4 ng/mL

###

PROTOCOL: Toxicokinetics of patidegib and metabolite IPI-230 in plasma after twice daily dermal application for 13 weeks
Assay type: in vivo, Gottingen Minipig
CONDITIONS: female, Gottingen, minipig, plasma, topical or ocular, 80 mg/kg/day, Gottingen Minipig plasma, Day 90, Group 4, 80 mg/kg/day dermal twice daily, sex F; read-out: Mean Patidegib AUC0-24
VALUE_TYPE: AUC(0-t) (ng·h/mL)
Please reply with the bare figure in ng·h/mL and do not write the unit itself.

Task: Entry "CC1=C2C[C@H]3[C@@H](CC[C@@H]4C[C@H](NS(C)(=O)=O)CC[C@@]43C)[C@@H]2CC[C@@]2(C1)O[C@@H]1C[C@H](C)CN[C@H]1[C@H]2C" : reported AUC(0-t) = ?
Output: 2310
